test: gradient 5% acetonitrile 3 min, to 50% in 2 min, to 85% in 15 min, held 3 min, 100 µL/min; conditions: column: Zorbax Extend-C18 2.1 x 50 mm; eluents: water / acetonitrile, 0.1% formic acid
Recorded RP-LC retention time, one value per entry.
Your answer is read as s, so omit the unit and give the number.

| Compound | Value |
| --- | --- |
| COc1cc(C(=O)NCCc2csc(-c3ccc(Cl)cc3)n2)c([N+](=O)[O-])cc1OC | 895 |
| CCOC(=O)c1c(C)oc2ncnc(NCCN(C)Cc3ccccc3)c12 | 688 |

The value of RP-LC retention time measured for the compound COc1cccc(C(O)CN2CCN(c3ccccc3F)CC2)c1 (configuration not stated) turned out to be 654

Memo: COc1ccc(S(=O)(=O)c2ccc(NCc3cccc(OC)c3)nn2)cc1 , reported RP-LC retention time: 860

Form field RP-LC retention time, entry Cc1cc2[nH]c(C(=O)Nc3ccc(F)cc3Br)c(CN(C)C)c2s1 : 678

Sample CC1(C(=O)NC2CCCCCCC2)CN(S(C)(=O)=O)CC(=O)N1Cc1ccc(F)cc1 (configuration not stated) ; RP-LC retention time observed: 740

// sample CN(Cc1ccccc1)C(=O)c1ccc2c(c1)CCCN2S(C)(=O)=O , its RP-LC retention time was 841

For O=C(NCCCN1CCOCC1)C1CCc2sc(C(=O)N3CCOCC3)cc2C1 (configuration not stated) the compound record lists RP-LC retention time as 568

For this compound ( CCNC(=O)N1CCc2nc(OCC)ccc2C1 ), measured RP-LC retention time is 606

Documented RP-LC retention time of CCS(=O)(=O)N1CCCc2cc(C(=O)NC(C)C)ccc21 : 746

Cc1nn(Cc2ccc(C(=O)NCC3CC3)cc2)c(C)c1S(=O)(=O)N1CCCCC1 has a reported RP-LC retention time of 859

// RP-LC retention time lookup, compound = Cc1ccc(C)c(NC(=O)N2CCC(n3c(C)nc4cccnc43)CC2)c1 , result: 638

Field RP-LC retention time (entry CCn1cnc(S(=O)(=O)N2CCC(C(=O)Nc3nc4ccc(OC)cc4s3)CC2)c1 ) reads 748

// recorded RP-LC retention time for Nc1nc(OCc2cc(Br)cs2)c2[nH]cnc2n1 : 687

compound CNC(=O)c1nc(C(=O)NCCc2ccc(Cl)cc2)cs1 , RP-LC retention time observed: 771

GET /value?item= O=C(c1nc2ncccn2n1)N1CCCn2cc(-c3ccccc3)nc21 &field=RP-LC retention time returns 595

Documented RP-LC retention time of O=C(c1ccoc1)N1CCN(c2cc(-c3ccc(Cl)cc3)[nH]n2)CC1 : 774

The recorded RP-LC retention time for COC(=O)C1=CN(c2ccc(Cl)cc2)c2ccccc2S1(=O)=O is 864

---

assay: gradient 5% acetonitrile 3 min, to 50% in 2 min, to 85% in 15 min, held 3 min, 100 µL/min; settings: column: Zorbax Extend-C18 2.1 x 50 mm; eluents: water / acetonitrile, 0.1% formic acid
Below is a list of entries, each paired with its recorded RP-LC retention time value.
Please reply with the bare figure in s and do not write the unit itself.

A selection of reference data follows.
| Compound | Unit Symbol | Value |
| --- | --- | --- |
| O=C(NCc1ccccc1Cl)c1cn2c(n1)COCC2 | s | 665 |
| CCC(C)(C)NS(=O)(=O)c1ccc(-c2c(C)noc2C)cc1 | s | 939 |
| CC(C)CNC(=O)CCn1c(=O)c2ccccc2n2c(=O)n(Cc3ccccc3)nc12 | s | 882 |

Shift focus to the following entry.
The reported value for Cc1ncsc1C1N(C2CCN(C(=O)c3ccco3)CC2)C(=O)C12CCCC2 (centres undefined) in terms of RP-LC retention time is 666

---

assay: gradient 5% acetonitrile 3 min, to 50% in 2 min, to 85% in 15 min, held 3 min, 100 µL/min; details: column: Zorbax Extend-C18 2.1 x 50 mm; eluents: water / acetonitrile, 0.1% formic acid
# RP-LC retention time values compiled below
Dear colleague, please return just the value in s, with no unit written.

| Molecule | Value |
| --- | --- |
| Cc1ccc(-c2ncccc2CNS(=O)(=O)c2cccc(C#N)c2)cc1 | 691 |

Looking up CC1CCN(Cc2csc(N3CCN(C(=O)CCCc4ccccc4)CC3)n2)CC1 , I see its RP-LC retention time listed as 715

In plain terms, COc1ccc(C2(C(=O)N3C[C@H]4C[C@H](C3)[C@H]3CCCC(=O)N3C4)CC2)cc1 has a documented RP-LC retention time of 679

The molecule identified as CSc1ccccc1NC(=O)c1coc(NC(=O)c2ccco2)n1 registered its RP-LC retention time at 699

Noted for COCCc1noc(C2Cc3ccccc3N2C(=O)NCC(=O)OC)n1 (stereo not given) : its RP-LC retention time reads 720

---

experiment: gradient 5% acetonitrile 3 min, to 50% in 2 min, to 85% in 15 min, held 3 min, 100 µL/min; conditions: column: Zorbax Extend-C18 2.1 x 50 mm; eluents: water / acetonitrile, 0.1% formic acid
Endpoint Label: RP-LC retention time (s)
Field format: number, assumed s, no unit text.

Example entries and their recorded answers appear below.
| Molecule | RP-LC retention time [s] |
| --- | --- |
| CC(C)N1CCC(c2nnc3n2CCN(S(=O)(=O)c2ccccc2Cl)C3)C1 (configuration not stated) | 599 |
| O=C(Nc1c(-c2ccccc2)nc2ccccn12)c1cc(Br)ccc1Cl | 717 |
| Cc1ccc(F)cc1S(=O)(=O)N1CCN(c2cnn3c(C)nnc3c2)CC1 | 616 |
| Cc1cccc(Nc2ncccc2C(=O)O)c1C | 707 |
| Cc1cc(C(=O)Nc2ccc3c(c2)CCC(=O)N3C)no1 | 686 |

Per the records, this molecule ( CN1C(=O)C2CCCCN2c2ccc(C(=O)N3CCN(c4ccccn4)CC3)cc21 (configuration not stated) ) has RP-LC retention time equal to 603

The molecule O=C(CCCSc1ccc(NC(=O)c2ccc(F)cc2)nn1)Nc1cccnc1 showed RP-LC retention time equal to 586

---

test: gradient 5% acetonitrile 3 min, to 50% in 2 min, to 85% in 15 min, held 3 min, 100 µL/min; conditions: column: Zorbax Extend-C18 2.1 x 50 mm; eluents: water / acetonitrile, 0.1% formic acid
Endpoint Label: RP-LC retention time (s)
Value expressed in s; do not type the unit.

Below: 4 compounds and their reported RP-LC retention time.
| Compound | RP-LC retention time, s |
| --- | --- |
| COc1ccc(-n2ccc(=O)c(-c3nc(-c4ccccc4F)no3)n2)cc1OC | 770 |
| CC(C)NC(=O)N1CCC(c2noc(-c3ccccn3)n2)C1 (centres undefined) | 648 |
| COc1ccccc1C(=O)N1CCN(c2cnn3c(C4CC4)nnc3c2)CC1 | 623 |
| Cc1ccc(OCC(=O)NCC2(C)CCOCC2)cc1 | 784 |

Please look at the following compound next.
get_value(item= COc1ccc(NC(=O)Cn2c(C)cc(-c3nnc(-c4ccccc4)o3)c2C)cc1F , readout=RP-LC retention time) returns 943

---

test: gradient 5% acetonitrile 3 min, to 50% in 2 min, to 85% in 15 min, held 3 min, 100 µL/min; settings: column: Zorbax Extend-C18 2.1 x 50 mm; eluents: water / acetonitrile, 0.1% formic acid
Endpoint Label: RP-LC retention time (s)
Expressed in s, but write only the number.

Example entries begin here.
| Compound | Value |
| --- | --- |
| Cc1ccc2c(=O)c(C(=O)N3CCCC3)cn(CC(=O)Nc3ccccc3Cl)c2n1 | 704 |
| CN(CCc1noc(COc2ccccc2F)n1)C(=O)c1cccs1 | 835 |
| O=C(NCc1ccc(F)cc1Cl)c1cn(-c2cc(N3CCOCC3)ncn2)cn1 | 840 |
| CCNC(=O)c1cc(-c2ccc(F)cc2)n(C)c1C | 820 |
| Cc1noc(C)c1S(=O)(=O)N1CCC2(CC1)N(c1ccccc1)C(=O)CS2=O (stereo not drawn) | 708 |
| Cn1nnc2c(N3CCN(C(=O)c4c(F)cccc4Cl)CC3)ncnc21 | 687 |
| COc1ccc(-c2nc3ccc(Cl)cn3c2Nc2ccc3c(c2)OCO3)cc1 | 748 |

// next entry
Record C#C[C@]1(O)CC[C@H]2[C@@H]3CCC4=CC(=O)CCC4=C3C=C[C@@]21CC . Reported RP-LC retention time: 1050

---

assay: gradient 5% acetonitrile 3 min, to 50% in 2 min, to 85% in 15 min, held 3 min, 100 µL/min; settings: column: Zorbax Extend-C18 2.1 x 50 mm; eluents: water / acetonitrile, 0.1% formic acid
Endpoint Label: RP-LC retention time (s)
Quick note: give the figure in s, leave out the unit.

// worked examples, RP-LC retention time included
| Compound | Endpoint Label | Value |
| --- | --- | --- |
| COCC1CN(C)CC12CCN(Cc1cccc(OC)n1)CC2 (configuration not stated) | RP-LC retention time | 567 |
| CCc1nn2c(CNC(=O)c3ccc(Cl)cc3)c(-c3ccccc3)nc2s1 | RP-LC retention time | 974 |
| COc1ccc(NC(=O)NC2CCN(c3ccc(F)c(C)c3)C2=O)cc1 (configuration not stated) | RP-LC retention time | 798 |

Query CNC(=O)C1Cc2ccccc2N1C(=O)c1ccccc1SC(F)F (configuration not stated) yields RP-LC retention time of 715

Input Cn1cnc(S(=O)(=O)N2[C@H]3CC[C@@H]2c2cnc(-c4ccc(F)cc4)nc2C3)c1 . Output RP-LC retention time: 764

Measured RP-LC retention time of O=C(c1nnc(-c2ccc(S(=O)(=O)N3CCCC3)cc2)o1)N1CCc2ccccc2C1 : 980

// RP-LC retention time lookup, compound = CCN1C(=O)Cc2ccccc2C1C(=O)NCc1ccc2c(c1)OCO2 (configuration not stated) , result: 727

Noted for CCn1c(C2CCN(S(=O)(=O)c3ccc(C(C)C)cc3)C2)nc2cccnc21 (configuration not stated) : its RP-LC retention time reads 906

Measured RP-LC retention time, CCC(C)NC(=O)Cn1cnc2nc(N3CCC(C(=O)NC4CC4)CC3)sc2c1=O (configuration not stated) : 1140

# RP-LC retention time (compound: COCCCNc1onc(-c2ccc(Cl)cc2)c1C(=O)OC ) is 1000

So, CCC(C)C(NC(=O)c1cc(C)cc(C)c1)C(=O)Nc1nc2ccccc2[nH]1 (configuration not stated) ? Its RP-LC retention time was 799

The compound identified as CC1CCN(c2ccc(NC(=O)CN3C(=O)CN(C)C(=O)c4ccccc43)cc2)CC1 registered its RP-LC retention time at 671
